B1: library; numbered along this chain (parent)
chain: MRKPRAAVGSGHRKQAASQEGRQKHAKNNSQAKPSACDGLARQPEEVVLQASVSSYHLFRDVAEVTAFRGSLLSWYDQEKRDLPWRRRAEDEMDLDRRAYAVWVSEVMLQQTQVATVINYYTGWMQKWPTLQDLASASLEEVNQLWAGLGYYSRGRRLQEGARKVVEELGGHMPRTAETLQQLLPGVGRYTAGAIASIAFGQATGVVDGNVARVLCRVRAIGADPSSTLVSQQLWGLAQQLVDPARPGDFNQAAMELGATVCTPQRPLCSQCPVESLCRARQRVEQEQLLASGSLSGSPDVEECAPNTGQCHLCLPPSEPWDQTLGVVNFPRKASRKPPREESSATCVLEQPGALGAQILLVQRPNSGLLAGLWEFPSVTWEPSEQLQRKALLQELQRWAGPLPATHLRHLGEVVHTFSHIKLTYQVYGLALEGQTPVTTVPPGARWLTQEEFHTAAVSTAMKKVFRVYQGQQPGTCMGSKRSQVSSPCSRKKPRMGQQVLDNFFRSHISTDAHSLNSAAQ

- Variants of: B1
- protocolSummary: 8OG:A repair function score (normalized; synonymous = 0, nonsense = -1) (normalized log-likelihood score); higher = more repair activity (WT-like);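 note: cells sorted at 72 h after reporter transfection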
- conditionInfo: with 8OG:A DNA repair reporter (GFP) in HEK-293 MUTYH KO cells
Collected 8OG:A repair function score values appear next to each entry.
Answer with the value's number alone.

G353H -0.144
G372R -0.304
F453W -0.274
A520C -0.000175
V104E -0.936
A238E -0.688
S298D -0.0341
A513N 0.0128

Please look up its 8OG:A repair function score: D91R
0.00216

Requested read-out: 8OG:A repair function score. Entry: V48G
0.0279

Please give the measured 8OG:A repair function score for this variant: E90N
-0.0107

Entry T116K : reported 8OG:A repair function score = ?
0.113

What does the record list as 8OG:A repair function score for N143H ?
-0.621

These measurements were taken from the supplement of paper PMC11908140.
